System: SK-BR-3
measurement.protocol: Cytotoxicity against human SKBR3 cells after 48 hrs by MTT assay
Assay type: functional, cell-based
test.conditions: SK-BR-3, 48 h
Listed next: entries and their corresponding IC50.
Entry rule: numbers only, all in µM.

Req: Give its IC50 value. Item: CC(=O)O[C@H]1C=CC(=O)O[C@@H]1c1nc(-c2ccccc2)oc1-c1ccccc1
Resp: 12

---

measurement.protocol: Chemical stability of the compound in 0.1 M phosphate buffer at pH 7.0 at 0.1 mg/mL after 12 hrs by HPLC analysis
Format: physicochemical
test.conditions: pH 7, 12 h
experimental.endpoint: Stability

compound=CC(=O)O[C@H]1C=CC(=O)O[C@@H]1c1nc(/C=C/c2ccccc2)oc1-c1ccccc1 experimental_endpoint=Stability test_value=Stable
compound=CC(=O)O[C@H]1C=CC(=O)O[C@@H]1[C@@H]1N=C(/C=C/c2ccccc2)O[C@@H]1c1ccccc1 experimental_endpoint=Stability test_value=Stable
compound=CC(=O)O[C@H]1C=CC(=O)O[C@@H]1/C=C/c1ccccc1 experimental_endpoint=Stability test_value=Stable
compound="CC(=O)O[C@H]1C=CC(=O)O[C@H]1[C@H]1O[C@@H]1c1ccccc1 [CHELIENSISIN A]" experimental_endpoint=Stability test_value=Stable

The values you see were collected from ChEMBL document CHEMBL1817574.
